Please provide measured AmyQ secretion efficiency for the entries that follow.
test system: Bacillus subtilis DB104 (SP-AmyQ fusion secretion); assay: AmyQ secretion efficiency, weighted average sort bin (1 = best secretion, 10 = worst) (bin number (weighted average, 1-10)); higher = lower secretion efficiency
Answer field: number only, no words.

Hello, I am looking for reported AmyQ secretion efficiency with Bacillus subtilis DB104 (SP-AmyQ fusion secretion) for MTKKAWFLPLVCVLLISGWLAPAASASAQED . Could you help?
2.97

Report AmyQ secretion efficiency for MKKWIYVVLVLSIAGIGGFSVHAAED tested on Bacillus subtilis DB104 (SP-AmyQ fusion secretion).
5.68

Find the measured AmyQ secretion efficiency: item MKLSVKIAGVLTVAAAAMTAKMYFFPAATAKGN , target or system Bacillus subtilis DB104 (SP-AmyQ fusion secretion).
6.16

Form entry - test system: Bacillus subtilis DB104 (SP-AmyQ fusion secretion); read-out: AmyQ secretion efficiency; sequence: MRKKTKNRLISSVLSTVVISSLLFPGAAGARKK
2.52

# get_value(readout= AmyQ secretion efficiency, system= Bacillus subtilis DB104 (SP-AmyQ fusion secretion)) for MKKRKRRNFKRFIAAFLVLALMISLVPADVLAKRK
3.6

Tell me reported AmyQ secretion efficiency for MKKLLAAGIIGLLTVSIASPWFAAEK , tested with Bacillus subtilis DB104 (SP-AmyQ fusion secretion).
7.98

Query AmyQ secretion efficiency on Bacillus subtilis DB104 (SP-AmyQ fusion secretion) for MKSKWQRKRRSGLLLVAVGFSFTQVMVHAGET
6.49

Which measured AmyQ secretion efficiency belongs to MKKAFLVFLSVVLVTTVFLVKQQESVAQTKQL , tested on Bacillus subtilis DB104 (SP-AmyQ fusion secretion)?
2.14

# returns recorded AmyQ secretion efficiency (system: Bacillus subtilis DB104 (SP-AmyQ fusion secretion)) for MAIIIAIIAAVIVIAALITFAVRNASPG
6.55

Can you look up AmyQ secretion efficiency on Bacillus subtilis DB104 (SP-AmyQ fusion secretion) for MKVPKTMLLSTAAGLLLSLTATSFSAHYV ?
6.3

// provenance: the supplement of paper PMC9942255
